Hey, just so you know, these numbers are from ChEMBL document CHEMBL3526136.

Reported pKd values are given for each entry in this list.
study system: Cytochrome P450 2B4 (Oryctolagus cuniculus)
method notes: Binding affinity to C-terminal His4-tagged CYP2B4 dH/H226Y mutant (rabbit) after 2 hrs by isothermal titration calorimetric analysis
Keep in mind that pKd stands for -log10 of concentration in molar terms.

Look over these answered cases.
| mol | study system | pKd |
| --- | --- | --- |
| Clc1ccc(-c2cnc[nH]2)cc1 | Cytochrome P450 2B4 (Oryctolagus cuniculus) | 6.52 |
| c1ccc(-n2ccnc2)cc1 | Cytochrome P450 2B4 (Oryctolagus cuniculus) | 6.52 |
| c1ccc(COCCn2ccnc2)cc1 | Cytochrome P450 2B4 (Oryctolagus cuniculus) | 6.52 |

INPUT: Would you mind telling me what pKd value was observed for `Clc1ccc(-n2ccnc2)cc1` ?
OUTPUT: 6.52

INPUT: Record: `c1ccc(Cn2ccnc2)cc1`
OUTPUT: 6.52
